meta.source: ChEMBL document CHEMBL3507680

Assay: Human HepG2 cell viability assay in 384 well format
Assay type: toxicity, cell-based
Parameters: dose 125 nL, time 70.5 hour; concentration not given beside the values
Conditions: HepG2 cells, read-out: Inhibition
Readout: cytotoxicity at 70.5 h (%)

# Compound, Units symbol, Numeric result
measured = [
    ("Cc1cn2nc(N3CCCC3Cn3nc(C)nc3C)sc2n1 (stereo unspecified)", "%", -5.44),
    ("COc1cccc(-c2n[nH]cc2C(=O)NC(C)c2nc(C(C)C)no2)c1 (stereo unspecified)", "%", -8.56),
    ("N#CC1(C(=O)N2CCOC(c3ccc(F)cc3)C2)CCCCC1 (stereo unspecified)", "%", -9.88),
    ("NC1(C(=O)NCC2CCCN(Cc3ccccc3F)C2)CCCC1 (stereo unspecified)", "%", -1.04),
    ("Cc1ccccc1S(=O)(=O)N1CCc2c(ncnc2N(C)C)C1", "%", 0.46),
    ("O=C(NCC1CC1)[C@@H]1CCO[C@@H]2CCN(CCc3ccccc3)C[C@H]21", "%", -5.09),
    ("Cn1cc(-c2nc(CN3CCn4c(nnc4C4CC4)C3)cs2)cn1", "%", -4.85),
    ("Cc1noc([C@@H]2C[C@H]3OCC[C@H]3N(CC3CCCC3)C2)n1", "%", -10.4),
    ("CCC1=NC2(CCC(C(=O)Nc3ccc(C)nc3)CC2)C(=O)N1C (stereo unspecified)", "%", -2.35),
    ("O=C([C@H]1C[C@H]2OCC[C@H]2N(CCc2ccccc2)C1)N1CCCO1", "%", -3.87),
    ("CC1CCN(C(=O)CSCCN2CCOCC2)CC1", "%", 4.07),
]
